# test_system: recombinant human OX40 (Acro Biosystems, cat. no. OXO-H5224) (human) (UniProt P43489)
# Sequence (P43489 29-216 limits assumed): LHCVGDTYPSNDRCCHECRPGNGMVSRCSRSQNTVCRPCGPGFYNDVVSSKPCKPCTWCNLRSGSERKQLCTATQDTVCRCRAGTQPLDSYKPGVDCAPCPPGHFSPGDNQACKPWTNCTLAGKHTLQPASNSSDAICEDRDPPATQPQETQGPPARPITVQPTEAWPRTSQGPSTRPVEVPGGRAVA
# protocol_details: BLI cross-block; competitor (immobilized 1st Ab): IgG1-CD134-RG7888
Exercise: for every item that follows, state its recorded corrected association response.
Numbers only, in nm.

[[record]]
binder = "IgG1-CD134-GBR830 (antibody, INN chains, looked up, V domains shown, IgG1) VH: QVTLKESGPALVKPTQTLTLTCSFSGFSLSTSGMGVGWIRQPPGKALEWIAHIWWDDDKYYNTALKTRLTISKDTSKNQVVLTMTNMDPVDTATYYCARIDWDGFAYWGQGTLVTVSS VL: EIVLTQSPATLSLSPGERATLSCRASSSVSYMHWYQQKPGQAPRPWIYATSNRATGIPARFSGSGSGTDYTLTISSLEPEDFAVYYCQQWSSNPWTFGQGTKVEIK"
measured_metric = "corrected association response"
unit_abbreviation = "nm"
value_measured = 0.61

[[record]]
binder = "IgG1-CD134-MEDI0562 (antibody, INN chains, looked up, V domains shown, IgG1) VH: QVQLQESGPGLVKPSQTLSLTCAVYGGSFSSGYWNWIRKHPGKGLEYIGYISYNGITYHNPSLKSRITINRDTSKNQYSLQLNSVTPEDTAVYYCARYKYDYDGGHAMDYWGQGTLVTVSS VL: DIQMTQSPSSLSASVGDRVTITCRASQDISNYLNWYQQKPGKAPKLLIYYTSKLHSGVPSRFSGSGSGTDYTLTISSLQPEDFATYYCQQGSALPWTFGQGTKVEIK"
measured_metric = "corrected association response"
unit_abbreviation = "nm"
value_measured = 0

[[record]]
binder = "IgG1-CD134-RG7888 (antibody, INN chains, looked up, V domains shown, IgG1) VH: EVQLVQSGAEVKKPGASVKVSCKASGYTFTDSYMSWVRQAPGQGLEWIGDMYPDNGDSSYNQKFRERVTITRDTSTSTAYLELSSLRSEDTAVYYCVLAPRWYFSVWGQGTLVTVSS VL: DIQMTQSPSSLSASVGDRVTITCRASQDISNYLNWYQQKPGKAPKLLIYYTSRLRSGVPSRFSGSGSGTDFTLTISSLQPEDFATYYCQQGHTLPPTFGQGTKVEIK"
measured_metric = "corrected association response"
unit_abbreviation = "nm"
value_measured = 0.02


Here is the next item to consider.
In: Which corrected association response value belongs to IgG1-CD134-ABBV368 (antibody, INN chains, looked up, V domains shown, IgG1) VH: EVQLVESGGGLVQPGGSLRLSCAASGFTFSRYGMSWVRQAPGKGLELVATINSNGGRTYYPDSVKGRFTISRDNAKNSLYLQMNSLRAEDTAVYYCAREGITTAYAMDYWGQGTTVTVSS VL: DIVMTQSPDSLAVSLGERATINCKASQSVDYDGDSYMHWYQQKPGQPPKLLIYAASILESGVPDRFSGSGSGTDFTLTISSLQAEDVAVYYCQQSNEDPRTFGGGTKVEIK ?
Out: 0.02
